Assay: AUC in Sprague-Dawley rat at 0.5 mg/kg, iv
Type: ADME, organism-based
Design: dose 0.5 mg/kg, route intravenous
Settings: plasma
ATTRIBUTE_MEASURED: AUC (ng·h/mL)
Please reply with the bare figure in ng·h/mL and do not write the unit itself.

The compound identified as CC(C)CN(c1ccc(C(O)(C#Cc2ccc(S(C)(=O)=O)cc2)C(F)(F)F)cc1)S(=O)(=O)c1ccccc1 (stereo unspecified) registered its AUC at 102

---

Experiment: Metabolic stability in rat liver microsomes assessed as compound remaining at 1 uM after 30 mins
Type: ADME, Microsome
Settings: read-out: Stability
Field: remaining at 0.5 h, 1 µM. Provide a value for each of the compounds that follow.

The compound identified as CS(=O)(=O)c1ccc(C#CC(O)(c2ccc(N(CC3CCCC3)S(=O)(=O)c3ccccc3)cc2)C(F)(F)F)cc1 (centres undefined) registered its remaining at 0.5 h, 1 µM at < 5%

The compound identified as CS(=O)(=O)c1ccc(C#CC(O)(c2ccc(N(CC3CCC3)S(=O)(=O)c3ccccc3)cc2)C(F)(F)F)cc1 (centres undefined) registered its remaining at 0.5 h, 1 µM at < 5%

The compound identified as CS(=O)(=O)c1ccc(C#CC(O)(c2ccc(N(CC3CC3)S(=O)(=O)c3ccccc3)cc2)C(F)(F)F)cc1 (centres undefined) registered its remaining at 0.5 h, 1 µM at > 95%

The compound identified as CC(C)CN(c1ccc(C(O)(C#Cc2ccc(S(C)(=O)=O)cc2)C(F)(F)F)cc1)S(=O)(=O)c1ccccc1 (centres undefined) registered its remaining at 0.5 h, 1 µM at < 5%
